tested on: Cyclin-dependent kinase 2 (Homo sapiens)
experiment notes: Inhibition of CDK2/Cyclin A
stated conditions: read-out: IC50
parameter: IC50 (nM)

Consider the following illustrative entries.
Cc1cc(CC(=O)Nc2cc(C3CC3)[nH]n2)ccc1-c1ccccc1 = 9
O=C(Cc1ccc(Cc2cccs2)cc1)Nc1cc(C2CC2)n[nH]1 = 3

[1] O=C(Cc1ccc(-c2ccccc2)c(F)c1)Nc1cc(C2CC2)n[nH]1
[2] O=C(Nc1cc(C2CCCCC2)[nH]n1)c1ccc(Br)cc1
In terms of reported IC50, does 1 or 2 have the smaller number? Mark your selection by writing its label.
1

* * *

tested on: Cyclin-dependent kinase 2 (Homo sapiens, UniProt P24941)
experiment notes: Inhibition of CDK2/Cyclin A
stated conditions: read-out: IC50
parameter: IC50

Guide cases for IC50, answers given:
O=C(Nc1cc(-c2ccccc2)[nH]n1)c1ccc(Br)cc1 = > 10 µM
CCCC(=O)Nc1cc(C)[nH]n1 = > 10 µM

Would you kindly share the measured IC50 for `O=C(Nc1cc(C2CC2)[nH]n1)c1c(Cl)cccc1Cl` ?
> 10 µM

What value of IC50 has been reported for the following compound? `CC(C)(C)c1cc(NC(=O)c2ccc(Br)cc2)n[nH]1`
> 10 µM

Consider the compound shown here: `O=C(Nc1cc(C2CC2)[nH]n1)c1ccccc1Cl` What is its recorded IC50?
10 µM

Consider the compound shown here: `O=C(Nc1cc(Cc2ccccc2)[nH]n1)c1ccc(Br)cc1` What is its recorded IC50?
> 10 µM
